Target: biotinylated CD59 (Homo sapiens)
Construct: Recombinant soluble human CD59 with an additional C-terminal cysteine residue
Sequence (P13987 26-102 limits assumed): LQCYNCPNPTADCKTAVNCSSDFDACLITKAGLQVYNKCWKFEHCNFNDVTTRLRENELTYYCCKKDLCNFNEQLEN
Assay: mRNA-display cyclic peptide screen against CD59-biotin, NGS abundance after 6th selection round
Settings: NGS sample Seq II, sheet R6 (6th selection round)
Would you mind labelling by Counts (raw counts for peptide sequence), Seq II? At or over 6 is Criterion met, under is Criterion not met.

Check out these entries, answers already filled in.
INSERT INTO assay_data (biopolymer_sequence, category_label) VALUES
  ('FVSGNRDHTRG', 'Criterion not met'),
  ('YVFGNRSFARG', 'Criterion met'),
  ('CFSRRLAAGAI', 'Criterion not met'),
  ('PWTWGNRSSVRG', 'Criterion met'),
  ('YVTGNRDHTRG', 'Criterion met');

Now let's try a different one.
Incoming: I'd appreciate it if you could say whether DPICTRYNDPR has Counts (raw counts for peptide sequence), Seq II at least equal to 6.
Outgoing: Criterion not met

====

Biological target: biotinylated CD59 (Homo sapiens, UniProt P13987)
Construct: Recombinant soluble human CD59 with an additional C-terminal cysteine residue
Sequence (P13987 26-102 limits assumed): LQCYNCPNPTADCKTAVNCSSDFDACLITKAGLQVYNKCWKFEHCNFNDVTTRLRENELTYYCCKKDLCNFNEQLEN
Experiment: mRNA-display cyclic peptide screen against CD59-biotin, NGS abundance after 6th selection round
Conditions: average of Seq I and Seq II, sheet R6
endpoint-name: Percentage of the pool, averaged across the two sequencing samples (%)
Quick reminder: number only, in %, skip the unit.

INSERT INTO assay_data (biopolymer_sequence, experimental_target, experimental_value) VALUES
  ('LWGTHSYVYYRP', 'biotinylated CD59 (Homo sapiens, UniProt P13987)', 0.013),
  ('HQECWARGSRE', 'biotinylated CD59 (Homo sapiens, UniProt P13987)', 0.014),
  ('YVRGDLYSVLG', 'biotinylated CD59 (Homo sapiens, UniProt P13987)', 0.010),
  ('YVTGNRDHTRG', 'biotinylated CD59 (Homo sapiens, UniProt P13987)', 0.017),
  ('DSRNQCHTWKT', 'biotinylated CD59 (Homo sapiens, UniProt P13987)', 0.017);

Incoming: Suppose we examine the sequence WIRGNRDESLG ; what Percentage of the pool, averaged across the two sequencing samples value has been reported?
Outgoing: 0.013

Incoming: Suppose we examine the sequence YVFGNRSFARG ; what Percentage of the pool, averaged across the two sequencing samples value has been reported?
Outgoing: 0.012

Incoming: Suppose we examine the sequence LVRGDLYSVLG ; what Percentage of the pool, averaged across the two sequencing samples value has been reported?
Outgoing: 0.018

Incoming: Suppose we examine the sequence CFSRRVTYPHQV ; what Percentage of the pool, averaged across the two sequencing samples value has been reported?
Outgoing: 0.013

Incoming: Suppose we examine the sequence HSYGSSQIAYH ; what Percentage of the pool, averaged across the two sequencing samples value has been reported?
Outgoing: 0.018

Incoming: Suppose we examine the sequence HCRVRGSRNYT ; what Percentage of the pool, averaged across the two sequencing samples value has been reported?
Outgoing: 0.011

Incoming: Suppose we examine the sequence CAWGNRYTAYY ; what Percentage of the pool, averaged across the two sequencing samples value has been reported?
Outgoing: 0.014

Incoming: Suppose we examine the sequence LAWGNRQIQYY ; what Percentage of the pool, averaged across the two sequencing samples value has been reported?
Outgoing: 0.016

The values you see were collected from paper PMC12207370.
